biological target: Prostaglandin G/H synthase 1 (Homo sapiens); assay: Inhibition of COX1 in human whole blood assessed as reduction in TXB2 production by measuring remaining activity at 100 uM after 1 hr by LC-MS/MS analysis
Listed below: Activity values for each entry.
METRIC: Activity (%)

>>> print(df.to_string())
                                smiles_repr    metric  value
0  COc1ccc(CN(Cc2ccccc2)S(=O)(=O)c2ccc(C(=O)O)cc2)cc1  Activity     90
1  CCCCN(Cc1ccccc1)S(=O)(=O)c1ccc(C(=O)O)cc1  Activity   97.8
2  O=C(O)c1ccc(S(=O)(=O)N(Cc2ccccc2)Cc2ccc(Nc3ccccc3)cc2)cc1  Activity    110
3  O=C(O)c1ccc(S(=O)(=O)N(Cc2ccccc2)c2ccc(Oc3ccccc3)cc2)cc1  Activity   85.2
4  O=C(O)c1ccc(S(=O)(=O)N(Cc2ccccc2)Cc2ccc(Oc3ccccc3)cc2)cc1  Activity   92.4
5  COc1ccc(CN(CC2CCCCC2)S(=O)(=O)c2ccc(C(=O)O)cc2)cc1  Activity   83.6

###

target: Prostaglandin G/H synthase 1 (Homo sapiens) (UniProt P23219); assay: Inhibition of COX1 in human whole blood assessed as reduction in PGD2 production by measuring remaining activity at 100 uM after 1 hr by LC-MS/MS analysis
Sequence (P23219 whole entry): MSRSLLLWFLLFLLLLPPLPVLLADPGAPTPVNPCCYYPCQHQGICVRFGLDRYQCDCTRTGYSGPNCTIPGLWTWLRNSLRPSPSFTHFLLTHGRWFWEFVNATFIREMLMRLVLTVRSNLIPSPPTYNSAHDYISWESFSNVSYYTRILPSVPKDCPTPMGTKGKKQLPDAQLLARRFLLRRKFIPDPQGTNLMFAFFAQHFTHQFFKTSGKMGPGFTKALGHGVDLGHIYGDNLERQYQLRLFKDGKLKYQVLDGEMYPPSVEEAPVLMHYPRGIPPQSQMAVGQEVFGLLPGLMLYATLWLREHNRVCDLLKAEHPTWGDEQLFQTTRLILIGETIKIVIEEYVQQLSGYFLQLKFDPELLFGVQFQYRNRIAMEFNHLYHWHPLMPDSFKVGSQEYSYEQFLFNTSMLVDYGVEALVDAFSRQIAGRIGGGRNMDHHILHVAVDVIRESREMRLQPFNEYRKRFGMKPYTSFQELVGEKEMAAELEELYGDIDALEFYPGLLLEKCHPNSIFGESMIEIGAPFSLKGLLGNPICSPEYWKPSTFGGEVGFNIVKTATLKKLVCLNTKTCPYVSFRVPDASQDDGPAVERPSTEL
Listed below: Activity values for each entry.
METRIC: Activity (%)

>>> print(df.to_string())
                                smiles_repr  value
0  COc1ccc(CN(CC2CCCCC2)S(=O)(=O)c2ccc(C(=O)O)cc2)cc1    110
1  O=C(O)c1ccc(S(=O)(=O)N(Cc2ccccc2)c2ccc(Oc3ccccc3)cc2)cc1   48.5
2  COc1ccc(CN(Cc2ccccc2)S(=O)(=O)c2ccc(C(=O)O)cc2)cc1   89.2
3  O=C(O)c1ccc(S(=O)(=O)N(Cc2ccccc2)Cc2ccc(Nc3ccccc3)cc2)cc1    109
4  CCCCN(Cc1ccccc1)S(=O)(=O)c1ccc(C(=O)O)cc1   73.4
5  O=C(O)c1ccc(S(=O)(=O)N(Cc2ccccc2)Cc2ccc(Oc3ccccc3)cc2)cc1   61.5

###

molecular target: Prostaglandin G/H synthase 2 (Homo sapiens); experiment: Inhibition of recombinant human COX2 using […] at 10 uM by LC-MS/MS analysis
Listed below: inhibition values for each entry.
METRIC: inhibition (%)

>>> df
                                smiles_repr                             tested_system  scale_unit  value_modifier  value
0  O=C(O)c1ccc(S(=O)(=O)N(Cc2ccccc2)Cc2ccc(Nc3ccccc3)cc2)cc1  Prostaglandin G/H synthase 2 (Homo sapiens)           %               =   12.9
1  COc1ccc(CN(Cc2ccccc2)S(=O)(=O)c2ccc(C(=O)O)cc2)cc1  Prostaglandin G/H synthase 2 (Homo sapiens)           %               <      0
2  O=C(O)c1ccc(S(=O)(=O)N(Cc2ccccc2)c2ccc(Oc3ccccc3)cc2)cc1  Prostaglandin G/H synthase 2 (Homo sapiens)           %               <      0
3  COc1ccc(CN(CC2CCCCC2)S(=O)(=O)c2ccc(C(=O)O)cc2)cc1  Prostaglandin G/H synthase 2 (Homo sapiens)           %               =   18.5
4  O=C(O)c1ccc(S(=O)(=O)N(Cc2ccccc2)Cc2ccc(Oc3ccccc3)cc2)cc1  Prostaglandin G/H synthase 2 (Homo sapiens)           %               =    3.1

###

biological target: UniProt:O14684; assay: Inhibition of mPGES-1 in human HeLa cells using PGH2 as substrate assessed as inhibition of IL-1beta/TNFalpha-stimulated PGE2 production preincubated for 30 mins followed by substrate addition measured after 1 min by LC-MS/MS analysis; format: cell-based
Sequence (O14684 whole entry): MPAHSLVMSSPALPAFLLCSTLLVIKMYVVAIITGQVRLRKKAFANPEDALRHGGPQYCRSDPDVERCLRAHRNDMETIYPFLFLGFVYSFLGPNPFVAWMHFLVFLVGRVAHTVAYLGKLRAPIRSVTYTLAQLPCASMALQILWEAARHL
# strict inequality: IC50 < 2 µM yields label 1, everything else yields label 0

>>> print(df.to_string())
                                smiles_repr   tested_system  answer_label
0  O=C(O)c1ccc(S(=O)(=O)N(Cc2ccccc2)Cc2ccc(Nc3ccccc3)cc2)cc1  UniProt:O14684       label 0
1  O=C(O)c1ccc(S(=O)(=O)N(Cc2ccccc2)c2ccc(Oc3ccccc3)cc2)cc1  UniProt:O14684       label 1
2  O=C(O)c1ccc(S(=O)(=O)N(Cc2ccc(-c3ccccc3)cc2)CC2CCCCC2)cc1  UniProt:O14684       label 1
3  O=C(O)c1ccc(S(=O)(=O)N(Cc2ccccc2)Cc2ccc(Oc3ccccc3)cc2)cc1  UniProt:O14684       label 1
4  COc1ccc(CN(CC2CCCCC2)S(=O)(=O)c2ccc(C(=O)O)cc2)cc1  UniProt:O14684       label 0
5  COc1ccc(CN(Cc2ccccc2)S(=O)(=O)c2ccc(C(=O)O)cc2)cc1  UniProt:O14684       label 0

###

biological target: Prostaglandin G/H synthase 1 (Ovis aries); assay: Inhibition of ovine COX1 using […] at 10 uM by LC-MS/MS analysis
METRIC: inhibition

                                smiles_repr      metric  value
0  O=C(O)c1ccc(S(=O)(=O)N(Cc2ccccc2)Cc2ccc(Oc3ccccc3)cc2)cc1  inhibition   0.3%
1  COc1ccc(CN(CC2CCCCC2)S(=O)(=O)c2ccc(C(=O)O)cc2)cc1  inhibition  10.3%
2  COc1ccc(CN(Cc2ccccc2)S(=O)(=O)c2ccc(C(=O)O)cc2)cc1  inhibition   < 0%
3  O=C(O)c1ccc(S(=O)(=O)N(Cc2ccccc2)c2ccc(Oc3ccccc3)cc2)cc1  inhibition  12.4%
4  O=C(O)c1ccc(S(=O)(=O)N(Cc2ccccc2)Cc2ccc(Nc3ccccc3)cc2)cc1  inhibition   < 0%

###

Target: Prostaglandin G/H synthase 2 (Homo sapiens)
Sequence (whole entry): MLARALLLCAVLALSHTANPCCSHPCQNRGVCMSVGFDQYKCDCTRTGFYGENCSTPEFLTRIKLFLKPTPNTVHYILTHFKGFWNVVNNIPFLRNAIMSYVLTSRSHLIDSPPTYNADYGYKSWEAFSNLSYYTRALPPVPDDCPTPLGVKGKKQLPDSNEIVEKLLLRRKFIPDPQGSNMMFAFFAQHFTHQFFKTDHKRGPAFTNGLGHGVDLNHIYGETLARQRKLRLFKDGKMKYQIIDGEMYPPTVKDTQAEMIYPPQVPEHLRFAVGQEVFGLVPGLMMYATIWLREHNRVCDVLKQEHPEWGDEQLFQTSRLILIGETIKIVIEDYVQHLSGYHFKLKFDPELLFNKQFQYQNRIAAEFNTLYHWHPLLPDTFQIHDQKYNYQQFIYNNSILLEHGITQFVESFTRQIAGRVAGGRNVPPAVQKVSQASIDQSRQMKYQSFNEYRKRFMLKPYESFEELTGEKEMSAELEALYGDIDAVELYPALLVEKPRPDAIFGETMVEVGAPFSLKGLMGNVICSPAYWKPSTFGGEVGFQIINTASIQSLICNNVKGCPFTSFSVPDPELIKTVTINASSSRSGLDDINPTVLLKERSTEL
Assay: Inhibition of LPS-stimulated COX2 in human whole blood assessed as reduction in PGE2 production by measuring remaining activity at 100 uM preincubated for 15 mins followed by LPS addition measured after 24 hrs by LC-MS/MS analysis
METRIC: Activity (%)

>>> df
                                smiles_repr  value
0  O=C(O)c1ccc(S(=O)(=O)N(Cc2ccccc2)Cc2ccc(Oc3ccccc3)cc2)cc1   88.7
1  O=C(O)c1ccc(S(=O)(=O)N(Cc2ccccc2)Cc2ccc(Nc3ccccc3)cc2)cc1   61.2
2  O=C(O)c1ccc(S(=O)(=O)N(CCCc2ccccc2)Cc2ccccc2)cc1     68
3  O=C(O)c1ccc(S(=O)(=O)N(Cc2ccc(-c3ccccc3)cc2)CC2CCCCC2)cc1   69.7

###

Molecular target: Prostaglandin G/H synthase 2 (Homo sapiens) (UniProt P35354)
Sequence (whole entry): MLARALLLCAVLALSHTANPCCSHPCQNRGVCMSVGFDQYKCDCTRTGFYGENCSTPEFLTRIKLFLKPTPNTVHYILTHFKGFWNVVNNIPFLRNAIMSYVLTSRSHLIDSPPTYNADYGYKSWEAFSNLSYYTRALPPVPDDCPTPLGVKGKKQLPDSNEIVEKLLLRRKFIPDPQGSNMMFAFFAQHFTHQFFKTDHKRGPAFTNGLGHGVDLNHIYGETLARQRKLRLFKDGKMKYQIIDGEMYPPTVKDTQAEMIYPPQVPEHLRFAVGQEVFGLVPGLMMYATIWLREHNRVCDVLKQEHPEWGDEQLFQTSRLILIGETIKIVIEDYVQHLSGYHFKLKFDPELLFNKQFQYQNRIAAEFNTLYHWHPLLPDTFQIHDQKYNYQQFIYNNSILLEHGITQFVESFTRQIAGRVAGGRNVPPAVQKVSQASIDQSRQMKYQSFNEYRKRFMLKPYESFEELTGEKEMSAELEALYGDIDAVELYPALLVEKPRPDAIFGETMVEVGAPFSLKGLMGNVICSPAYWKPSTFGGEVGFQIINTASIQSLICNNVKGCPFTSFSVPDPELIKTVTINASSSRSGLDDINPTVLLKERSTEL
Assay: Inhibition of LPS-stimulated COX2 in human whole blood assessed as reduction in PGF2alpha production by measuring remaining activity at 100 uM preincubated for 15 mins followed by LPS addition measured after 24 hrs by LC-MS/MS analysis
Listed below: Activity values for each entry.
METRIC: Activity (%)

                                smiles_repr                             tested_system  scale_unit  value
0  COc1ccc(CN(CC2CCCCC2)S(=O)(=O)c2ccc(C(=O)O)cc2)cc1  Prostaglandin G/H synthase 2 (Homo sapiens) (UniProt P35354)           %    114
1  CCCCN(Cc1ccccc1)S(=O)(=O)c1ccc(C(=O)O)cc1  Prostaglandin G/H synthase 2 (Homo sapiens) (UniProt P35354)           %    117
2  COc1ccc(CN(Cc2ccccc2)S(=O)(=O)c2ccc(C(=O)O)cc2)cc1  Prostaglandin G/H synthase 2 (Homo sapiens) (UniProt P35354)           %    107
3  O=C(O)c1ccc(S(=O)(=O)N(Cc2ccccc2)c2ccc(Oc3ccccc3)cc2)cc1  Prostaglandin G/H synthase 2 (Homo sapiens) (UniProt P35354)           %   86.8
4  O=C(O)c1ccc(S(=O)(=O)N(Cc2ccccc2)Cc2ccc(Nc3ccccc3)cc2)cc1  Prostaglandin G/H synthase 2 (Homo sapiens) (UniProt P35354)           %   90.9
5  O=C(O)c1ccc(S(=O)(=O)N(CCc2ccccc2)Cc2ccccc2)cc1  Prostaglandin G/H synthase 2 (Homo sapiens) (UniProt P35354)           %    117
6  O=C(O)c1ccc(S(=O)(=O)N(CCCc2ccccc2)Cc2ccccc2)cc1  Prostaglandin G/H synthase 2 (Homo sapiens) (UniProt P35354)           %    129
7  O=C(O)c1ccc(S(=O)(=O)N(Cc2ccccc2)Cc2ccc(Oc3ccccc3)cc2)cc1  Prostaglandin G/H synthase 2 (Homo sapiens) (UniProt P35354)           %   92.5
8  O=C(O)c1ccc(S(=O)(=O)N(Cc2ccc(-c3ccccc3)cc2)CC2CCCCC2)cc1  Prostaglandin G/H synthase 2 (Homo sapiens) (UniProt P35354)           %    117

Source of measurements: ChEMBL document CHEMBL3091291
